Entry source: paper PMC8041284

- MEASUREMENT TARGET: UniProtKB Q06187
- ASSAY NOTES: biochemical
- EXPERIMENTAL SETUP: read-out: BTK inhibition (%), 0.75 uM BTK, […] probe 3l, 15 min preincubation
QUANTITY: inhibition at 10 µM (%)
State the answer as a number, implicitly in %.

Q: inhibition at 10 µM lookup needed for CCCCCCCCC[C@H](O)CC(=O)CCc1ccc(O)c(OC)c1 [PCM-0216384] , thanks.
Ans: -10.8

Q: Then this molecule: C[C@@H](O[C@H]1OCCN(Cc2nn(P(=O)(O)O)c(=O)[nH]2)[C@H]1c1ccc(F)cc1)c1cc(C(F)(F)F)cc(C(F)(F)F)c1 [PCM-0214804]
Ans: 10.1

Q: Then this molecule: CC(C)NC(=O)C1CCC(n2c(NC(=O)c3ccc(F)cc3)nc3ccc(CN4CCC(C(C)(C)O)CC4)cc32)CC1 (centres unmarked) [PCM-0215859]
Ans: 53.1

Q: Then this molecule: C=CCNC(N)=S [PCM-0090807]
Ans: -18.7

Q: Then this molecule: C[C@@]12CC[C@@H]3[C@@](CC[C@H]4[C@@]3(C)CCC[C@@]4(C)C(=O)O)(CC1=O)C2 [PCM-0215049]
Ans: -16.3

Q: Then this molecule: Clc1ccccc1C(c1ccccc1)(c1ccccc1)n1ccnc1 [PCM-0064702]
Ans: -2.3

Q: Then this molecule: CC(C)CN(CC(=O)N1CCN(CC(OCc2ccc3ccccc3c2)c2ccc(Cl)cc2Cl)CC1)CC(C)C (centres unmarked) [PCM-0215889]
Ans: 93.4

Q: Then this molecule: COc1cc2c[n+](C)c3c4cc5c(cc4ccc3c2cc1OC)OCO5 [PCM-0216452]
Ans: 27.8

* * *

- MEASUREMENT TARGET: BTK (Homo sapiens)
- ASSAY NOTES: biochemical
- EXPERIMENTAL SETUP: read-out: BTK inhibition (%), 0.75 uM BTK, […] probe 3l, 15 min preincubation
QUANTITY: inhibition at 10 µM (%)
State the answer as a number, implicitly in %.

Q: # returns recorded inhibition at 10 µM (system: BTK (Homo sapiens)) for COc1cccc2c1C(=O)c1c(O)c3c(c(O)c1C2=O)C[C@@](O)(C(=O)CO)C[C@@H]3O[C@H]1C[C@H](N)[C@H](O[C@@H]2CCCCO2)[C@H](C)O1
Ans: 53.7

Q: Then this compound: CS(=O)(=O)N1CCc2c(-c3cnc(N)nc3)nc(N3CCOCC3)nc21
Ans: -5.5

Q: Then this compound: FC(F)(F)c1ccc(/C=C/c2nc(COc3ccc(CCCCn4ccnn4)cc3)co2)cc1
Ans: 13.1

Q: Then this compound: C#Cc1cccc(Nc2ncnc3cc(OCCOC)c(OCCOC)cc23)c1
Ans: 1.7

Q: Then this compound: COc1nc(C)nc(Cl)c1NC1=NCCN1
Ans: 0.8

Q: Then this compound: CS(=O)(=O)c1ccc(-c2nnc(/C=C/c3nnc(-c4ccc(C#N)cc4)o3)n2-c2ccccc2Cl)nc1
Ans: 0

Q: Then this compound: C[C@H]1C[C@H]2[C@@H]3C[C@H](F)C4=CC(=O)C=C[C@]4(C)[C@@]3(F)[C@@H](O)C[C@]2(C)[C@@]1(O)C(=O)CO
Ans: 9

* * *

- MEASUREMENT TARGET: BTK (Homo sapiens, UniProt Q06187)
- ASSAY NOTES: biochemical
- EXPERIMENTAL SETUP: read-out: BTK inhibition (%), 0.75 uM BTK, […] probe 3l, 15 min preincubation
Field: inhibition at 10 µM. Provide a value for each of the compounds that follow.
State the answer as a number, implicitly in %.

Q: # returns recorded inhibition at 10 µM (system: BTK (Homo sapiens, UniProt Q06187)) for O=C1c2c(O)cc(O)cc2O[C@H](c2cc(O)c(O)c(O)c2)[C@H]1O [PCM-0094847]
Ans: -9

Q: Then this compound: O=C(O)c1ccc(N2C(=O)/C(=C/c3ccc(-c4ccc([N+](=O)[O-])cc4)o3)C=C2c2ccccc2)cc1 [PCM-0095764]
Ans: 98.1

Q: Then this compound: CC[C@H](C)C(=O)O[C@H]1C[C@@H](C)C=C2C=C[C@H](C)[C@H](CC[C@@H]3C[C@@H](O)CC(=O)O3)[C@H]21 [PCM-0086045]
Ans: 9.3

Q: Then this compound: CCCSc1nc(N[C@@H]2C[C@H]2c2ccc(F)c(F)c2)c2nnn([C@@H]3C[C@H](OCCO)[C@@H](O)[C@H]3O)c2n1 [PCM-0095628]
Ans: -34.2

Q: Then this compound: C[C@@H]1OC(O)[C@@H](O)[C@H](O)[C@@H]1O (stereo partly shown) [PCM-0216337]
Ans: -23.2

Q: Then this compound: CC(C)c1nc(CN(C)C(=O)N[C@H](C(=O)N[C@@H](Cc2ccccc2)C[C@H](O)[C@H](Cc2ccccc2)NC(=O)OCc2cncs2)C(C)C)cs1 [PCM-0214603]
Ans: -19.5

Q: Then this compound: O=C(O)c1cccnc1Nc1cccc(C(F)(F)F)c1 [PCM-0064877]
Ans: 24.1

* * *

Field: pIC50. Provide a value for each of the compounds that follow.
- MEASUREMENT TARGET: wild-type BTK (Homo sapiens, UniProt Q06187)
- Sequence (Q06187 whole entry): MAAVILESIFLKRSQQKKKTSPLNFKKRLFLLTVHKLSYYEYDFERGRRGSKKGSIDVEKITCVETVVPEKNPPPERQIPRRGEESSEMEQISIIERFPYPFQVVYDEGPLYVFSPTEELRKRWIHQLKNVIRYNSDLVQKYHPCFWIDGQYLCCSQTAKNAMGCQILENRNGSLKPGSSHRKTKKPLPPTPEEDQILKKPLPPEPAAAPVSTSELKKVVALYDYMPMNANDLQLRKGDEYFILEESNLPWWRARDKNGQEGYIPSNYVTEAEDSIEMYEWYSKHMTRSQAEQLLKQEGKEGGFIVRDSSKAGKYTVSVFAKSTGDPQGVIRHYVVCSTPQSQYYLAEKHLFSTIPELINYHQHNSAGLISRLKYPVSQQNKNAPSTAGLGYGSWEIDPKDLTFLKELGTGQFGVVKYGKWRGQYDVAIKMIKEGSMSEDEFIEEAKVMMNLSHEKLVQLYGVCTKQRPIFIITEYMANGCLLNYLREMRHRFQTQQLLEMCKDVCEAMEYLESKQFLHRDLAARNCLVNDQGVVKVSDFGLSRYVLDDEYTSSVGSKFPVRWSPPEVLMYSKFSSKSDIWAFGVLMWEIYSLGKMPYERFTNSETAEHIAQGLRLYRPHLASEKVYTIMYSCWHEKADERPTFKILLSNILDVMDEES
- ASSAY NOTES: In vitro kinase activity assay (Nanosyn)
- EXPERIMENTAL SETUP: BTK IC50, in vitro kinase activity assay
pIC50: −log10 of the molar value.

Q: pIC50 lookup needed for C=C(CNCc1ccccc1)C(=O)N1CCC[C@@H](n2nc(-c3ccc(Oc4ccccc4)cc3)c3c(N)ncnc32)C1 , thanks.
Ans: > 10.00

Q: Then this compound: C=C(COC(C)=O)C(=O)N1CCC[C@@H](n2nc(-c3ccc(Oc4ccccc4)cc3)c3c(N)ncnc32)C1
Ans: > 10.00

Q: Then this compound: C=C(CN1CCCCC1)C(=O)N1CCC[C@@H](n2nc(-c3ccc(Oc4ccccc4)cc3)c3c(N)ncnc32)C1
Ans: > 10.00

* * *

- MEASUREMENT TARGET: BTK (Homo sapiens)
- ASSAY NOTES: biochemical
- EXPERIMENTAL SETUP: read-out: BTK inhibition (%), 0.75 uM BTK, […] probe 3l, 15 min preincubation
Would you please tag the item label 1 when its inhibition at 10 µM is 10% or above, and label 0 when it is below?

Q: Answer whether inhibition at 10 µM of COc1ccc(-c2cc(=O)c3c(O)c(OC)c(O)c(OC)c3o2)cc1 is greater than or equal to 10%.
Ans: label 1

Q: Then this compound: c1ccc(CNc2nc(NCc3ccccc3)c3ccccc3n2)cc1
Ans: label 1

Q: Then this compound: O=c1c(-c2ccc(O)cc2)coc2cc(O)ccc12
Ans: label 0

Q: Then this compound: C[C@H]1COC2=C1C(=O)C(=O)c1c2ccc2c1CCCC2(C)C
Ans: label 1

Q: Then this compound: Cn1c(O)c(C2=c3ccccc3=NC2=O)c2ccccc21
Ans: label 0

Q: Then this compound: CC(C)(O)CNc1ncc(-c2ccnc(Nc3ccncc3)n2)c(CC2CC2)n1
Ans: label 0

Q: Then this compound: Cn1cnc2c(F)c(Nc3ccc(Br)cc3F)c(C(=O)NOCCO)cc21
Ans: label 1

Q: Then this compound: Oc1ccc2ccccc2c1N=Nc1ccc(N=Nc2ccccc2)cc1
Ans: label 0

Q: Then this compound: C=CCS[S+]([O-])CC=C (stereo not shown)
Ans: label 0

Q: Then this compound: Cc1cc(C)cc(NC(=O)Cc2ccc(OC(C)(C)C(=O)O)cc2)c1
Ans: label 0

Q: Then this compound: CCCCCCCC(=O)N[C@H](CN1CCCC1)[C@H](O)c1ccc2c(c1)OCCO2
Ans: label 0

Q: Then this compound: Nc1ncnc2c1ncn2[C@@H]1O[C@H](CO)[C@@H](O)[C@H]1O
Ans: label 1

Q: Then this compound: O=c1[nH]c2ccc(Cl)cc2c(N[C@@H]2CN3CCC2CC3)c1-c1nc2ccccc2[nH]1
Ans: label 0

Q: Then this compound: COc1cc(O)c2c(c1)C(=O)c1cc(C)cc(O)c1C2=O
Ans: label 1

Q: Then this compound: CN(C)CCC[C@@]1(c2ccc(F)cc2)OCc2cc(C#N)ccc21
Ans: label 0

Q: Then this compound: N[C@@H](Cc1cc(I)c(Oc2cc(I)c(O)c(I)c2)c(I)c1)C(=O)O
Ans: label 1

Q: Then this compound: OCc1ccccc1O[C@@H]1O[C@H](CO)[C@@H](O)[C@H](O)[C@H]1O
Ans: label 0

Q: Then this compound: Nc1ncc(-c2ccnc(Nc3ccncc3)n2)c(CC2CC2)n1
Ans: label 0

* * *

Field: pIC50. Provide a value for each of the compounds that follow.
- MEASUREMENT TARGET: wild-type BTK (Homo sapiens, UniProt Q06187)
- ASSAY NOTES: In vitro kinase activity assay (Nanosyn)
- EXPERIMENTAL SETUP: BTK IC50, 0.6 nM BTK, 5 μM ATP; Figure 4C
API: returns pIC50 as number; meaning -log10 of concentration in mol/L.

Q: pIC50 lookup needed for C=C(C)C(=O)N1CCC[C@@H](n2nc(-c3ccc(Oc4ccccc4)cc3)c3c(N)ncnc32)C1 , thanks.
Ans: 7.91

Q: Then this compound: C=C(COc1ccc2ccc(=O)oc2c1)C(=O)N1CCC[C@@H](n2nc(-c3ccc(Oc4ccccc4)cc3)c3c(N)ncnc32)C1
Ans: 9.00
